meta.source: PubChem BioAssay AID623911

# reported manual score; entries follow
# TARGET OR SYSTEM: G protein-activated inward rectifier potassium channel 2 (Homo sapiens) + G protein-activated inward rectifier potassium channel 1 (Homo sapiens) (UniProt P48051+P48549)
# Sequence (P48051 whole entry, looked up): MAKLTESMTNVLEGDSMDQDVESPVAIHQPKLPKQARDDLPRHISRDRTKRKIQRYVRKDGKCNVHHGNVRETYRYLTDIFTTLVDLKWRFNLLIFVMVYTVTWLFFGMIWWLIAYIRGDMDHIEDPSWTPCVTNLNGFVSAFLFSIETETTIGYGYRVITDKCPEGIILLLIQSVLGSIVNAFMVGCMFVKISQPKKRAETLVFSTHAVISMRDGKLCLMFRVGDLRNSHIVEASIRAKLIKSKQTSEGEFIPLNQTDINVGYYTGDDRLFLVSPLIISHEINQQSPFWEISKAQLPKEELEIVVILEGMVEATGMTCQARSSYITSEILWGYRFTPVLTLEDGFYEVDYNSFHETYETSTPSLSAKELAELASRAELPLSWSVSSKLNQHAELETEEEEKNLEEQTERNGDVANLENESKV
# Sequence (P48549 whole entry, looked up): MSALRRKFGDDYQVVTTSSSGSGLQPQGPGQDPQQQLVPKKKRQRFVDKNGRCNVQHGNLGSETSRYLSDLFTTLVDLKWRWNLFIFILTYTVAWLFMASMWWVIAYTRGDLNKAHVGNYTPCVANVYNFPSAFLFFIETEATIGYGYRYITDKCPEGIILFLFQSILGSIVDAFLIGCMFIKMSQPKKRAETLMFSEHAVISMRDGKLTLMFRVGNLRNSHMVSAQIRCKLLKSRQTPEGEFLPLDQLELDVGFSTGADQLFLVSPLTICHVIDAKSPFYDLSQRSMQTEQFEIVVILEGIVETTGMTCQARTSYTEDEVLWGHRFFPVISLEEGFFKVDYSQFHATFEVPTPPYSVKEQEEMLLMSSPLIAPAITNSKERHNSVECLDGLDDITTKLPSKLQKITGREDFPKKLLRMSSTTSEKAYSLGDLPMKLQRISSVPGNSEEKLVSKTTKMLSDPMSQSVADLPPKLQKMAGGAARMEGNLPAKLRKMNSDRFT
# METHOD SUMMARY: GIRK1/2 thallium flux modulators, retest, confirmation, cell-based, HEK293 rmGlu8/hGIRK1/2, FluoZin-2 (AID 623911)
# CONDITION INFO: HEK293 rmGlu8/hGIRK1/2, thallium flux FluoZin-2; actives lie on both sides; glutamate co-added at its EC20 level
Hit rate of the full screen: of about 2,100 compounds, about 770 (37%) were called active. The list shows a part of the results.
Lab note: write the figure by itself, no unit.

Some solved cases for reference:
Query string: Quickly give me recorded manual score for CC(C)n1c(-c2ccc(C(C)(C)C)cc2)n[nH]c1=S
Result string: 0

Query string: Quickly give me recorded manual score for C/C(CC(O)c1ccc2ccccc2n1)=N/O (configuration not stated)
Result string: 0

Query string: Quickly give me recorded manual score for O=C(COc1ccc(Cl)cc1Cl)NC(=S)N1CCCc2ccccc21
Result string: 0

Query string: Quickly give me recorded manual score for CCOc1ccc(N2C(=O)/C(=C/c3cc(OC)c(OC)c(OC)c3)N(CC(=O)OC)C2=S)cc1
Result string: 0

Query string: Quickly give me recorded manual score for Cn1c(=O)c(NCCc2ccccc2)c2c3c(cccc31)C(=O)c1ccccc1-2
Result string: 3

Continuing:
Query string: Quickly give me recorded manual score for COc1ccc2cc(C(=O)NCC(=O)O)sc(=O)c2c1OC
Result string: 0

* * *

# TARGET OR SYSTEM: G protein-activated inward rectifier potassium channel 2 (Homo sapiens) + G protein-activated inward rectifier potassium channel 1 (Homo sapiens) (UniProt P48051+P48549)
# METHOD SUMMARY: GIRK1/2 thallium flux modulators, retest, confirmation, cell-based, HEK293 rmGlu8/hGIRK1/2, FluoZin-2 (AID 623911)
# CONDITION INFO: HEK293 rmGlu8/hGIRK1/2, thallium flux FluoZin-2; actives lie on both sides; glutamate co-added at its EC20 level
Hit rate of the full screen: of about 2,100 compounds, about 770 (37%) were called active.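 The calls were made as follows: active = by-eye trace score of 1 for enhancers or -1 for inhibitors, so actives lie on both sides (some results past the limit were not filed as active); inactive = score 0, or 3 fluorescent, or 4 baseline rise.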 The list shows a part of the results.
Please reply with one of these outcomes: 1 (active), 0 (inactive)

Query string: Hi team, can someone confirm the assay call for CCOC(=O)c1c(-c2ccccc2)csc1NC(=S)NC ?
Result string: 1

Continuing:
Query string: Hi team, can someone confirm the assay call for Fc1cc(F)c2nc(Nc3nc4c(F)cccc4s3)sc2c1 ?
Result string: 0

Query string: Hi team, can someone confirm the assay call for CCOC(=O)CSc1cccc2cccnc12 ?
Result string: 0

Query string: Hi team, can someone confirm the assay call for O=C(CCS(=O)NCc1ccccc1)NCc1ccccc1 (configuration not stated) ?
Result string: 0

Query string: Hi team, can someone confirm the assay call for Fc1ccc2nc(Nc3nc4c(F)cccc4s3)sc2c1 ?
Result string: 1

Query string: Hi team, can someone confirm the assay call for CCOC(=O)c1c(-c2ccc(C)o2)csc1NC(=S)NC(=O)c1cccs1 ?
Result string: 0

Query string: Hi team, can someone confirm the assay call for Cc1ccc(NC(=O)c2ccc(COc3ccc4c(c3)CCC4)cc2)c(C)c1 ?
Result string: 0

Query string: Hi team, can someone confirm the assay call for COc1ccc(/C=C/C(=O)N2CCN(S(=O)(=O)/C=C/c3ccccc3)CC2)cc1OC ?
Result string: 0

Query string: Hi team, can someone confirm the assay call for COc1cccc(-c2nnc(Nc3nc4c(F)cccc4s3)o2)c1 ?
Result string: 1

* * *

# reported manual score; entries follow
# TARGET OR SYSTEM: G protein-activated inward rectifier potassium channel 2 (Homo sapiens) + G protein-activated inward rectifier potassium channel 1 (Homo sapiens) (UniProt P48051+P48549)
# METHOD SUMMARY: GIRK1/2 thallium flux modulators, retest, confirmation, cell-based, HEK293 rmGlu8/hGIRK1/2, FluoZin-2 (AID 623911)
# CONDITION INFO: HEK293 rmGlu8/hGIRK1/2, thallium flux FluoZin-2; actives lie on both sides; glutamate co-added at its EC20 level
The campaign covered roughly 2,100 compounds. About 770 (37%) were called active. This is one part of the list.
Lab note: write the figure by itself, no unit.

Some solved cases for reference:
Query string: Quickly give me recorded manual score for CC(C)CC(=O)Nc1ccccc1-c1nnn(CC(=O)N2CCc3ccccc3C2)n1
Result string: 0

Query string: Quickly give me recorded manual score for C=C(C)CNC(=S)N/N=C(\C)c1ccc(Cl)s1
Result string: 1

Query string: Quickly give me recorded manual score for O=C(NNC(=O)c1cccs1)Nc1cccc(Cl)c1
Result string: 1

Query string: Quickly give me recorded manual score for Cc1c(C2Nc3ccccc3NC3=C2C(=O)CC(C)(C)C3)cnn1C (configuration not stated)
Result string: 0

Query string: Quickly give me recorded manual score for Cc1ccc(C(=O)NNC(=S)NC(=O)c2ccc(Cl)cc2)cc1
Result string: 1

Query string: Quickly give me recorded manual score for C/C(=N\NC(N)=S)c1ccc(Cl)s1
Result string: 0

Query string: Quickly give me recorded manual score for Cc1ccc(NCC(=O)Nc2cccc(S(=O)(=O)N(C)C)c2)c(Cl)c1
Result string: 0

Query string: Quickly give me recorded manual score for CN(C)S(=O)(=O)c1cccc(NC(=O)COc2cccc(C#N)c2)c1
Result string: 0

Query string: Quickly give me recorded manual score for Cc1ccc(OCCCC(=O)Nc2nccs2)cc1
Result string: 0

Query string: Quickly give me recorded manual score for c1ccc2c(Nc3nnc(-c4ccncc4)s3)cccc2c1
Result string: 0

Continuing:
Query string: Quickly give me recorded manual score for O=C(CN1C(=O)/C(=C/c2ccccc2F)Oc2ccccc21)N1CCN(c2ccccn2)CC1
Result string: 0

* * *

# TARGET OR SYSTEM: G protein-activated inward rectifier potassium channel 2 (Homo sapiens) + G protein-activated inward rectifier potassium channel 1 (Homo sapiens) (UniProt P48051+P48549)
# METHOD SUMMARY: GIRK1/2 thallium flux modulators, retest, confirmation, cell-based, HEK293 rmGlu8/hGIRK1/2, FluoZin-2 (AID 623911)
# CONDITION INFO: HEK293 rmGlu8/hGIRK1/2, thallium flux FluoZin-2; actives lie on both sides; glutamate co-added at its EC20 level
Out of some 2,100 compounds screened, about 770 (37%) were called active.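 How the source made its calls: active means by-eye trace score of 1 for enhancers or -1 for inhibitors, so actives lie on both sides (some results past the limit were not filed as active); inactive means score 0, or 3 fluorescent, or 4 baseline rise.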 The list shows a part of the results.
Please reply with one of these outcomes: active, inactive

Query string: Hi team, can someone confirm the assay call for O=C(Nc1nnc(-c2cccs2)o1)c1cccc(F)c1 ?
Result string: active

Continuing:
Query string: Hi team, can someone confirm the assay call for O=C1C2C3C=CC(C3)C2C(=O)N1/N=C/c1cn(Cc2ccccc2)c2ccccc12 (stereo unspecified) ?
Result string: inactive

Query string: Hi team, can someone confirm the assay call for Cc1cc(C)c(NC(=O)c2ccc(S(=O)(=O)N(C)C)cc2)c(C)n1 ?
Result string: inactive

Query string: Hi team, can someone confirm the assay call for CCCCCc1nnc(NC(=O)Cc2cccs2)s1 ?
Result string: inactive

Query string: Hi team, can someone confirm the assay call for S=C(N/N=C/c1ccccc1Cl)Nc1ccccc1 ?
Result string: inactive

Query string: Hi team, can someone confirm the assay call for O=C(N/N=C/c1c(Cl)cccc1Cl)c1cccc(F)c1 ?
Result string: inactive

Query string: Hi team, can someone confirm the assay call for COc1ccc(C(=O)Nc2ccc(Oc3ncnc4sc(-c5ccccc5)cc34)cc2)cc1OC ?
Result string: inactive

Query string: Hi team, can someone confirm the assay call for Cc1conc1NC(c1cccs1)c1ccc2cccnc2c1O (stereo unspecified) ?
Result string: inactive

Query string: Hi team, can someone confirm the assay call for S=C(NCCc1ccccc1)Nc1ccc(Cl)cc1Cl ?
Result string: inactive

Query string: Hi team, can someone confirm the assay call for O=C(c1cnn2c(C(F)(F)F)cc(-c3cccs3)nc12)N1CCN(Cc2ccccc2)CC1 ?
Result string: inactive

Query string: Hi team, can someone confirm the assay call for Cc1occc1C(=O)Nc1cccc(C(F)(F)F)c1 ?
Result string: inactive

* * *

# TARGET OR SYSTEM: G protein-activated inward rectifier potassium channel 2 (Homo sapiens) + G protein-activated inward rectifier potassium channel 1 (Homo sapiens) (UniProt P48051+P48549)
# METHOD SUMMARY: GIRK1/2 thallium flux modulators, retest, confirmation, cell-based, HEK293 rmGlu8/hGIRK1/2, FluoZin-2 (AID 623911)
# CONDITION INFO: HEK293 rmGlu8/hGIRK1/2, thallium flux FluoZin-2; actives lie on both sides; glutamate co-added at its EC20 level
Screen size: about 2,100 compounds; about 770 (37%) were called active. Some of the results follow.
# reported manual score; entries follow
Lab note: write the figure by itself, no unit.

Some solved cases for reference:
Query string: Quickly give me recorded manual score for CC1(C)CC(=O)c2c(noc2-c2ccccc2)C1
Result string: 0

Query string: Quickly give me recorded manual score for C=CCn1c(=O)c2c(C)c(C)sc2n2c(Nc3ccc(OC)cc3)nnc12
Result string: -0.5

Query string: Quickly give me recorded manual score for Fc1ccc(/C=N/n2c(-c3cccs3)n[nH]c2=S)cc1
Result string: 1

Query string: Quickly give me recorded manual score for C/C(=N/NC(=S)Nc1ccccc1)c1ccc2c(c1)OCO2
Result string: 0

Query string: Quickly give me recorded manual score for CC1CC(=S)Nc2ccccc2N1Cc1ccccc1 (centres undefined)
Result string: 0

Query molecule follows.
Query string: Quickly give me recorded manual score for CCc1nc(SCC(=O)Nc2nnc(CC)s2)c2c(C)c(C)sc2n1
Result string: 0
